- Tested on: SNB-19
- assay-details: NCI tumour cell line growth inhibition, 48 h
Active and inactive are the calls of the source. Rule as the data show it: active = GI50 up to about 1.1 µM and inactive = higher.
reported-endpoint: GI50

Here is how some compounds turned out for GI50.
In [3]: df
Out[3]:
                                   compound  experimental_target  reported_endpoint             measured
0  CCC(c1nc2ccccc2c(=O)n1NC(=O)C(C)(C)C)C1(O)CCCCC1 (stereo not given)               SNB-19               GI50  > 100 µM (inactive)
1  Cc1ccc2nc(Cl)c(/C=N/N3C(=O)/C(=C/c4ccccc4S)N=C3c3ccccc3)cc2c1               SNB-19               GI50   52.8 µM (inactive)
2  Nc1nc2c(ncn2CCOC(c2ccccc2)P(=O)(O)O)c(=O)[nH]1 (stereo not given)               SNB-19               GI50  > 100 µM (inactive)
3  O=C(CC1OC(O)C(Cl)=C1Cl)c1cccnc1 (stereo not given)               SNB-19               GI50  > 100 µM (inactive)

Query: GI50; subject: CC(C)(C)OC(=O)C1C(=O)NC(=O)CC1C(COCc1ccccc1)OCc1ccccc1 (stereo not given)
40.6 µM (inactive)

Param item: O=C1c2ccsc2-c2cccc3cccc1c23.O=C1c2sccc2-c2cccc3cccc1c23
2.93 µM (inactive)

Try this compound too: O=c1ccc2c(Cl)sc(Cl)c2[nH]1
> 100 µM (inactive)

Same question for CN(C(=O)C12C3C4C1C1C2C3C41C(=O)O)C(C)(C)C (stereo not given) please.
> 100 µM (inactive)

What would you report for O[C@@H]1[C@H](OC2c3ccccc3-c3ccccc32)[C@H](OCc2ccccc2)[C@@H]2OC[C@H]1O2 ?
58.2 µM (inactive)

// same read-out, input: CCOC(=O)NC(OCCN(C)C)(C(F)(F)F)C(F)(F)F
> 100 µM (inactive)

---

# GI50 listing for each entry below
- Test system: UACC-257
- assay-details: NCI tumour cell line growth inhibition, 48 h
Calls of active or inactive are those of the source. Cut-off read from the data, not from the text of the source: active = GI50 up to about 1.1 µM and inactive = higher.

These recorded examples may help you get a feel for the data.
>>> print(df.to_string())
                                   compound             measured
0  [O-][Cl+3]([O-])([O-])[O-].[O-][Cl+3]([O-])([O-])[O-].c1ccn2c(N3CCOCC3)[n+]3c4ccccc4[n+]4c(N5CCOCC5)n5ccccc5c4c3c2c1   68.9 µM (inactive)
1  O=C1NC2ON=C(c3ccccc3)C2C2ON=C(c3ccccc3)N12 (stereo not drawn)  > 100 µM (inactive)

Please report the recorded GI50 for O=C1C(c2ccccc2)=C(c2ccccc2)C(c2ccc(CCCCCCc3ccc(C4=C(c5ccccc5)C(=O)C(c5ccccc5)=C4c4ccccc4)cc3)cc2)=C1c1ccccc1 .
> 100 µM (inactive)

What about O=c1[nH]c2nc[nH]c2c(=O)n1C1CCCCC1 ?
> 100 µM (inactive)

Nc1nc(-c2ccccc2/N=N/N2CCCC2)nc2ccccc12 , same question.
3.51 µM (inactive)

Input CC(=O)OCC1OC(n2c(N)c(C#N)c(-c3ccc(C)cc3)c(C#N)c2=S)C(OC(C)=O)C(OC(C)=O)C1OC(C)=O (stereo not drawn)
19.2 µM (inactive)

Next: COc1ccc(C2C(Cl)C(=O)N2NC(=O)c2ccc(NC(C)=O)cc2)cc1 (stereo not drawn)
> 100 µM (inactive)

Please give the result for O=C(O)c1c(Cl)c(Cl)c(Cl)c(Cl)c1C(=O)Nc1ccc2cn[nH]c2c1 too.
> 100 µM (inactive)

---

// values below are reported GI50
- Tested on: SN12C
- assay-details: NCI tumour cell line growth inhibition, 48 h
Active and inactive are the calls of the source. Rule as the data show it: active = GI50 up to about 1.1 µM and inactive = higher.

                                   compound             measured
0  CC(=O)OC[C@H]1On2nnnc2[C@H](OC(C)=O)[C@@H](OC(C)=O)[C@@H]1OC(C)=O  > 100 µM (inactive)

Return reported GI50; argument: Cc1cccc(C(C)(C)C)c1NC(=O)CC1C(=O)Nc2ccccc2S1(=O)=O (stereo unspecified)
12.3 µM (inactive)

CCCCCCCCCCCCCCCCNC(=O)/C(O)=C/C(=O)c1ccc(C)cc1 , same question.
> 10 µM (inactive)

Try this compound too: COc1ccc(-n2c(=O)n(C)c(=O)n2-c2ccc(OC)cc2)cc1
> 100 µM (inactive)

How about this compound: O=C(OCc1ccccc1)N1CCNCCN(C(=O)OCc2ccccc2)CCNCC1
39.4 µM (inactive)

Another compound: CN(C)CCC(C#N)(c1ccccc1)c1ccccc1
72.4 µM (inactive)

And CCOC(=O)c1cc(C2(O)CCN(Cc3ccccc3)C2=O)c(-c2cc(C)no2)[nH]1 (stereo unspecified) ?
69 µM (inactive)

And then O=C(N/N=C\c1cccs1)c1ccncc1 , what is it?
> 100 µM (inactive)

Another: Nc1ccc(S(=O)(=O)Nc2nc3ccccc3nc2N2CCCCC2)cc1
82 µM (inactive)

Moving on to the next compound: O=C(CC1Sc2ccccc2NC1=O)Nc1cc(Cl)ccc1Cl (stereo unspecified)
> 100 µM (inactive)

And the next one, CCOc1ccccc1NC(=O)CC1C(=O)Nc2ccccc2[S+]1[O-] (stereo unspecified) ?
> 100 µM (inactive)

---

- System: HCC 2998
- assay-details: NCI tumour cell line growth inhibition, 48 h
Calls of active or inactive are those of the source. No stated cut-off is given here; in the data, active = GI50 up to about 1.1 µM and inactive = higher.
reported-endpoint: GI50

In [3]: df
Out[3]:
                                   compound             measured
0       O=C(CCc1nnc(S)[nH]1)Nc1cc(Cl)ccc1Cl  > 100 µM (inactive)
1  Cc1cc(C)nc(NS(=O)(=O)c2ccc(NC(=O)c3cccc4c(Nc5ccc(S(=O)(=O)N=C(N)N)cc5)c5ccc(Cl)cc5nc34)cc2)n1   19.8 µM (inactive)
2  CCOC(=O)Cc1nc2c(O)ncnc2n1C1OC(COC(C)=O)C(OC(C)=O)C1OC(C)=O (centres undefined)  > 100 µM (inactive)

Suppose we examine the compound COc1ccccc1NC(=O)C1=C(C)NC(C)=C(C(=O)Nc2ccccc2OC)C1c1ccc(C(C)C)cc1 ; what GI50 value has been reported?
63.7 µM (inactive)

---

- Tested on: ACHN
- assay-details: NCI tumour cell line growth inhibition, 48 h
Activity calls are given as the source filed them. Rule as the data show it: active = GI50 up to about 1.1 µM and inactive = higher.
reported-endpoint: GI50

Example compounds with recorded GI50:
>>> print(df.to_string())
                                   compound             measured
0  CCCCCCCCCCCCCCCCNC(=O)/C(O)=C/C(=O)c1ccc(C)cc1   > 10 µM (inactive)
1  COC(=O)CN(CC1O[C@@H]2OC(C)(C)O[C@@H]2C1NC(C)=O)C(=O)OCc1ccccc1 (stereo not given in full)  > 100 µM (inactive)

Recorded GI50 for COC(=O)c1nc(-c2nc(CCNC(=O)OC(C)(C)C)sc2Cl)sc1Cl with ACHN, please?
83.2 µM (inactive)

Proceed to Cc1nc(-n2nc(-c3ccccc3)cc2-c2ccccc2)sc1C(=O)CC(=O)C(=O)Nc1ccc(Cl)c(Cl)c1
25.1 µM (inactive)

Repeat for the following compound: Cn1c(-c2cccs2)cc(-c2cccs2)c1-c1cccs1
75 µM (inactive)

---

Consider the following compounds and their measured GI50 readings.
- Test system: COLO 205
- assay-details: NCI tumour cell line growth inhibition, 48 h
The source made the active and inactive calls. No stated cut-off is given here; in the data, active = GI50 up to about 1.1 µM and inactive = higher.

>>> df
                     compound  experimental_target             measured
0  O=C(N/N=C\c1cccs1)c1ccncc1             COLO 205  > 100 µM (inactive)

Which measured GI50 value corresponds to O=C1c2ccccc2-c2ccccc2C(=O)C1(Br)Br ?
8.24 µM (inactive)

// same read-out, input: C=CC(Cl)(CBr)CCC(Br)C(C)(C)Cl (configuration not stated)
15.9 µM (inactive)

Field entry: N#Cc1c(-c2ccc(Cl)cc2)cc(-c2ccc(Nc3ccnc4cc(C(F)(F)F)ccc34)cc2)nc1N
29.4 µM (inactive)

Repeat with COC1CCC(O)C(/C=C/[N+](=O)[O-])C1 (configuration not stated)
2.28 µM (inactive)

Can you check Cc1cc(=O)n2nc(CSc3nnc(N)s3)sc2n1 next?
> 100 µM (inactive)

Consider next the compound COc1cc([C@@H]2c3cc4c(cc3[C@@H](OC3OC5COC(C)OC5C(O)C3O)[C@H]3COC(=O)[C@H]23)OCO4)cc(OC)c1O (some centres not stated) in the same way.
40.3 µM (inactive)

---

- System: MDA-MB-231
- assay-details: NCI tumour cell line growth inhibition, 48 h
Active and inactive are the calls of the source. Rule as the data show it: active = GI50 up to about 1.1 µM and inactive = higher.
reported-endpoint: GI50

Answered examples (2):
In [3]: df
Out[3]:
                                 smiles_str             measured
0  CO[C@]12C[C@H](CNC(=O)c3cc(Br)c(Br)[nH]3)O[C@H]1NC(=O)N2  > 100 µM (inactive)
1  CC(C)OC(=S)Nc1ccc(Cl)c(/C=N/OC(C)(C)C)c1   14.9 µM (inactive)

# input compound: COc1cc(N(Cc2ccc3oc(=O)c(-c4ccccc4)nc3c2)Cc2ccc3oc(=O)c(-c4ccccc4)nc3c2)cc(OC)c1OC ; wanted: its GI50
> 10 µM (inactive)

Next compound: Cn1cnc2c(OCC3CCCCC3)nc(N)nc21
> 100 µM (inactive)

Moving on to COC(=O)c1sc2c(c1C(=O)OC)/C(=N/C(C)(C)C)S/C2=N\C(C)(C)C
19.9 µM (inactive)

Note, next up: COc1ccc(/C(=N/O)c2ccccc2-c2nc3ccccc3c(=O)n2-c2ccc(S(=O)(=O)Nc3ncccn3)cc2)cc1C
18.4 µM (inactive)

Then this compound: Cc1c2c(C(N)=O)nccc2c(C)c2c1c1ccccc1n2Cc1ccccc1
9.75 µM (inactive)

Likewise for Fc1ccc(C(OCCN2CCN(CCCCl)CC2)c2ccc(F)cc2)cc1 ?
26.5 µM (inactive)

Please do the same for O=C1C[C@@H](c2ccccc2)NCCCCN(O)CCCN1 as well.
> 100 µM (inactive)

Okay, and CN(C)CCCn1cnc2cc(Cl)c(Cl)cc21 ?
> 100 µM (inactive)
